B1: APBB1IP (parent)
chain: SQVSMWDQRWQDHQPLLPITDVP

Variants of: B1
Experiment: protein stability index of a GFP-peptide fusion (GPS, HEK-293T) (PSI 1-6); higher = more stable;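 also: lentivirally expressed fusions sorted by FACS into six bins by GFP to DsRed ratio, PSI derived from sequencing read proportions per bin multiplied by bin number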
Conditions: c terminus: native
Class label 1: protein stability index at least 3. Class label 0: protein stability index below 3.

q: Is protein stability index at least 3? Consider SQVSMWDQRWQDHQPLLPNTDVP [I19N]
a: label 1

q: Record SQVSMWDQRWQDNQPLLPITDVP [H13N] ; criterion: protein stability index no lower than 3. Met?
a: label 0

q: Entry SQVSMWDQRWQVHQPLLPITDVP [D12V] : is its protein stability index no less than 3?
a: label 1

q: Could you please find out whether SNVSMWDQRWQDHQPLLPITDVP [Q2N] has protein stability index that meets 3 or exceeds it?
a: label 0

q: Does protein stability index meet or surpass 3 for SQVSMWCQRWQDHQPLLPITDVP [D7C] ?
a: label 0

q: Threshold query (protein stability index >= 3) on NQVSMWDQRWQDHQPLLPITDVP [S1N]
a: label 0

q: Does protein stability index meet or surpass 3 for HQVSMWDQRWQDHQPLLPITDVP [S1H] ?
a: label 0

q: Decide: protein stability index of SQVSMWDQRWQDHQPLGPITDVP [L17G] >= 3?
a: label 1

q: Is protein stability index at least 3? Consider SQVSMWDQRWQDHQPLLPITDVQ [P23Q]
a: label 0

q: Can SQVSMWDQRWQDHQPLLPIYDVP [T20Y] be said to have protein stability index at or above 3?
a: label 0

q: Does protein stability index meet or surpass 3 for SQVSMWDNRWQDHQPLLPITDVP [Q8N] ?
a: label 0

q: Given the entry SQVSMWDQRWQDHQPLLWITDVP [P18W] , answer whether its protein stability index meets or surpasses 3.
a: label 0

q: # check: protein stability index of SQVSMWDQRWQDHQPLLPITMVP [D21M] is greater than or equal to 3
a: label 0

q: # check: protein stability index of SQVSMWDQRWQDHQPLLPITEVP [D21E] is greater than or equal to 3
a: label 0

q: Please tell me: is the variant SQVSMWDQRWRDHQPLLPITDVP [Q11R] at or over 3 in terms of protein stability index?
a: label 1

q: Assess whether reported protein stability index for SQVSMWDQRWQDHQPLLPITDVG [P23G] sits at 3 or higher.
a: label 0

q: Quick check: does SQVSMWDQRMQDHQPLLPITDVP [W10M] have protein stability index greater than or equal to 3?
a: label 0

q: Evaluate SQVSMWDQRWQDHQPLLPITDAP [V22A] : protein stability index at minimum 3?
a: label 0

q: Given the entry SQQSMWDQRWQDHQPLLPITDVP [V3Q] , answer whether its protein stability index meets or surpasses 3.
a: label 1

q: Check if protein stability index >= 3 (inclusive). Item: SQVSMWDQRWQDHQYLLPITDVP [P15Y]
a: label 0

q: Given SQVSMWDQRWQDHQPLLPITDVK [P23K] , state whether its protein stability index is at least 3.
a: label 0

Value source: the supplement of paper PMC10567573
